system: Puccinia recondita tritici (PUCCRT); assay: Leaf rust of wheat foliar protectant test; assay type: in vivo; settings: 200 ppm foliar, inoculated one day after treatment, read-out: Activity against fungal diseases PUCCRT
Items are presented alongside their recorded pest or weed control at 200 ppm.
metric: pest or weed control at 200 ppm

[
  {
    "compound": "Fc1ccc(F)c2c(NCCc3ccc(Oc4cnccc4C(F)(F)F)c(Cl)c3)ncnc12 [Compound 91]",
    "measured_result": "80 to 100%"
  },
  {
    "compound": "COc1cc(CCNc2ncnc3c(F)ccc(F)c23)ccc1Oc1ccnc(Cl)c1 [Compound 108]",
    "measured_result": "80 to 100%"
  },
  {
    "compound": "Oc1ccc(CCNc2ncnc3c(F)ccc(F)c23)cc1F [Compound 47]",
    "measured_result": "0 to 49%"
  },
  {
    "compound": "Fc1ccc(F)c2c(NCCc3ccc(Oc4ccnc(C(F)(F)F)n4)cc3)ncnc12 [Compound 114]",
    "measured_result": "80 to 100%"
  },
  {
    "compound": "COc1ccc(CCNc2ncnc3c(F)ccc(F)c23)cc1Cl [Compound 85]",
    "measured_result": "0 to 49%"
  },
  {
    "compound": "Fc1cc(F)c2ncnc(NCCc3ccc(Oc4ccc(C(F)(F)F)cn4)cc3)c2c1F [Compound 74]",
    "measured_result": "80 to 100%"
  },
  {
    "compound": "Fc1cc(F)c2ncnc(NCCc3ccc(Oc4cc(C(F)(F)F)ccn4)cc3)c2c1F [Compound 31]",
    "measured_result": "80 to 100%"
  },
  {
    "compound": "COc1cc(C(C)(F)F)cc(Oc2ccc(CCNc3ncnc4c(F)ccc(F)c34)cc2)n1 [Compound 11]",
    "measured_result": "80 to 100%"
  },
  {
    "compound": "Cc1cc(O)ccc1CCNc1ncnc2c(F)ccc(F)c12 [Compound 51]",
    "measured_result": "0 to 49%"
  },
  {
    "compound": "Cc1cc(CCNc2ncnc3c(F)cc(F)c(F)c23)ccc1Oc1cc(C(F)(F)F)ccn1 [Compound 80]",
    "measured_result": "80 to 100%"
  },
  {
    "compound": "COc1cc(CCNc2ncnc3c(F)ccc(F)c23)ccc1Oc1cc(Cl)nc(C(F)(F)F)n1 [Compound 104]",
    "measured_result": "80 to 100%"
  },
  {
    "compound": "COc1ccc(CCNc2ncnc3c(F)cc(F)c(F)c23)cc1Cl [Compound 86]",
    "measured_result": "0 to 49%"
  },
  {
    "compound": "Fc1ccc(F)c2c(NCCc3ccc(Oc4c(Cl)cnc(C(F)(F)F)c4Cl)cc3)ncnc12 [Compound 95]",
    "measured_result": "80 to 100%"
  },
  {
    "compound": "Cc1cc(Oc2cc(C(F)(F)F)ccn2)ccc1CCNc1ncnc2c(F)ccc(F)c12 [Compound 55]",
    "measured_result": "80 to 100%"
  },
  {
    "compound": "Fc1ccc(F)c2c(NCCc3ccc(Oc4ccnc(C(F)(F)F)c4Cl)cc3)ncnc12 [Compound 96]",
    "measured_result": "80 to 100%"
  },
  {
    "compound": "Fc1ccc(F)c2c(NC3Cc4ccc(Oc5cc(C(F)(F)F)ccn5)cc4C3)ncnc12 (stereo not shown) [Compound 110]",
    "measured_result": "80 to 100%"
  },
  {
    "compound": "Fc1ccc(F)c2c(NCCc3ccc(Oc4cnccc4C(F)(F)F)cc3)ncnc12 [Compound 43]",
    "measured_result": "80 to 100%"
  },
  {
    "compound": "COc1ccc(CCNc2ncnc3c(F)ccc(F)c23)cc1C [Compound 21]",
    "measured_result": "50 to 79%"
  },
  {
    "compound": "COC(=O)c1cnc(Oc2ccc(CCNc3ncnc4c(F)ccc(F)c34)cc2C)cc1C(F)(F)F [Compound 36]",
    "measured_result": "80 to 100%"
  },
  {
    "compound": "Fc1cc(CCNc2ncnc3c(F)ccc(F)c23)ccc1Oc1ncc(C(F)(F)F)cc1F [Compound 131]",
    "measured_result": "80 to 100%"
  },
  {
    "compound": "Cc1cc(CCNc2ncnc3c(F)ccc(F)c23)ccc1O [Compound 24]",
    "measured_result": "0 to 49%"
  },
  {
    "compound": "COc1ccc(CCNc2ncnc3c(F)cc(F)c(F)c23)cc1C [Compound 68]",
    "measured_result": "0 to 49%"
  },
  {
    "compound": "Cc1cc(CCNc2ncnc3c(F)ccc(F)c23)ccc1Oc1c(Cl)cnc(C(F)(F)F)c1Cl [Compound 79]",
    "measured_result": "80 to 100%"
  },
  {
    "compound": "[O-][n+]1ccc(C(F)(F)F)cc1Oc1ccc(CCNc2ncnc3c(F)cc(F)c(F)c23)cc1 [Compound 75]",
    "measured_result": "80 to 100%"
  },
  {
    "compound": "Cc1cc(C(F)(F)F)cc(Oc2cc(C)c(CCNc3ncnc4c(F)ccc(F)c34)cc2C)n1 [Compound 22]",
    "measured_result": "80 to 100%"
  },
  {
    "compound": "Fc1ccc(F)c2c(NCCc3cccc(Oc4cc(C(F)(F)F)ccn4)c3)ncnc12 [Compound 40]",
    "measured_result": "80 to 100%"
  },
  {
    "compound": "Cc1cc(Oc2cc(C(F)(F)F)ncn2)ccc1CCNc1ncnc2c(F)ccc(F)c12 [Compound 118]",
    "measured_result": "80 to 100%"
  },
  {
    "compound": "Oc1ccc(CCNc2ncnc3c(F)ccc(F)c23)cc1Cl [Compound 87]",
    "measured_result": "0 to 49%"
  },
  {
    "compound": "CC(Nc1ncnc2c(F)ccc(F)c12)c1ccccc1 (stereo not shown) [Compound 119]",
    "measured_result": "80 to 100%"
  },
  {
    "compound": "N#Cc1ccc(Oc2ccc(CCNc3ncnc4c(F)ccc(F)c34)cc2)nc1 [Compound 124]",
    "measured_result": "80 to 100%"
  },
  {
    "compound": "C=Cc1cc(CCNc2ncnc3c(F)ccc(F)c23)ccc1Oc1cc(C(F)(F)F)ccn1 [Compound 65]",
    "measured_result": "80 to 100%"
  },
  {
    "compound": "Fc1cc(Oc2ncc(C(F)(F)F)cc2F)ccc1CCNc1ncnc2c(F)ccc(F)c12 [Compound 122]",
    "measured_result": "80 to 100%"
  },
  {
    "compound": "Oc1cc(CCNc2ncnc3c(F)ccc(F)c23)ccc1Oc1cc(C(F)(F)F)ccn1 [Compound 56]",
    "measured_result": "80 to 100%"
  },
  {
    "compound": "Fc1ccc(F)c2c(NCCc3ccc(Oc4ccc(C(F)(F)F)cn4)cc3)ncnc12 [Compound 1]",
    "measured_result": "80 to 100%"
  }
]

====

test: Mouse oral exposure (gavage), 14 days; design: species or system mice; details: female, CD-1/Swiss derived albino, in vivo, 5% w/v in 0.5% carboxymethylcellulose, monitored 14 days
metric: LD50 at 14 days

[
  {
    "compound": "Fc1ccc(F)c2c(NCCc3ccc(Oc4cc(C(F)(F)F)ccn4)cc3)ncnc12",
    "metric": "LD50 at 14 days",
    "measured_result": "100 to 500 mg/kg"
  },
  {
    "compound": "Fc1cccc2c(NCCc3ccc(Oc4cc(C(F)(F)F)ccn4)cc3)ncnc12 [drawing 198, reference compound]",
    "metric": "LD50 at 14 days",
    "measured_result": "< 100 mg/kg"
  },
  {
    "compound": "Fc1cc(F)c2ncnc(NCCc3ccc(Oc4cc(C(F)(F)F)ccn4)cc3)c2c1F",
    "metric": "LD50 at 14 days",
    "measured_result": "> 500 mg/kg"
  }
]

====

tested on: Septoria tritici (SEPTTR); test: Septoria blotch of wheat foliar protectant test; assay type: in vivo; settings: Zymoseptoria tritici; 200 ppm foliar, inoculated one day after treatment; read-out: Activity against fungal diseases SEPTTR
metric: pest or weed control at 200 ppm

[
  {
    "compound": "CCOc1cc(CCNc2ncnc3c(F)ccc(F)c23)ccc1Oc1cc(C(F)(F)F)ccn1 [Compound 60]",
    "measured_result": "80 to 100%"
  },
  {
    "compound": "Fc1cc(CCNc2ncnc3c(F)ccc(F)c23)ccc1Oc1cc(C(F)(F)F)ncn1 [Compound 132]",
    "measured_result": "80 to 100%"
  },
  {
    "compound": "Fc1ccc(F)c2c(NCCc3ccc(Oc4cc(C(F)(F)F)ncn4)cc3)ncnc12 [Compound 109]",
    "measured_result": "80 to 100%"
  },
  {
    "compound": "COc1ccc(CCNc2ncnc3c(F)ccc(F)c23)c(C)c1C [Compound 20]",
    "measured_result": "50 to 79%"
  },
  {
    "compound": "Fc1cc(CCNc2ncnc3c(F)cc(F)c(F)c23)ccc1Oc1cc(C(F)(F)F)ccn1 [Compound 67]",
    "measured_result": "80 to 100%"
  },
  {
    "compound": "Fc1ccc(F)c2c(NCCc3ccc(Oc4cnccc4C(F)(F)F)cc3)ncnc12 [Compound 43]",
    "measured_result": "80 to 100%"
  },
  {
    "compound": "Oc1ccc(CCNc2ncnc3c(F)ccc(F)c23)cc1Cl [Compound 87]",
    "measured_result": "0 to 49%"
  },
  {
    "compound": "N#Cc1cc(Cl)ncc1Oc1ccc(CCNc2ncnc3c(F)ccc(F)c23)cc1 [Compound 125]",
    "measured_result": "80 to 100%"
  }
]

Each recorded value in this set is attributed to patent US9000162B2.
